- target or test system: Enolase in Escherichia coli lysates (Escherichia coli, UniProt P0A6P9)
- Construct: Overnight grown saturated E. coli (DH5α) liquid culture was pelleted by centrifugation; endogenous in cells; host or cells: E. coli DH5α
- Sequence (P0A6P9 whole entry): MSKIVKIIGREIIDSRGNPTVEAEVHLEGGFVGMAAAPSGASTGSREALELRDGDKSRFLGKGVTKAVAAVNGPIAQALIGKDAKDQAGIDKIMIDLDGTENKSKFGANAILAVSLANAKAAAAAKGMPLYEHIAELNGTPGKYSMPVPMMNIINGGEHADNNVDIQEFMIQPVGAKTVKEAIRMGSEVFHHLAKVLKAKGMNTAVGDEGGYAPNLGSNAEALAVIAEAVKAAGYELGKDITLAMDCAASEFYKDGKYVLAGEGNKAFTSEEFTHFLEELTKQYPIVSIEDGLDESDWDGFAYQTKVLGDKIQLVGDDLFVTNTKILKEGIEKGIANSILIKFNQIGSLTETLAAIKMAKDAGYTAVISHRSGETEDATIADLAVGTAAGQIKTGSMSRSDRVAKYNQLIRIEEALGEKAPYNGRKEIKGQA
- experimental details: Enolase activity in E. coli native lysates, direct measurement of PEP formation at 240 nm
- Format: biochemical
- measurement parameters: direct PEP absorbance at 240 nm; read-out: IC50, Enolase in E. coli lysates
pIC50: −log10 of the molar value.
recorded endpoint: pIC50

Task: Query pIC50 on Enolase in Escherichia coli lysates (Escherichia coli, UniProt P0A6P9) for CC1(P(=O)(O)O)CC(O)N(O)C1=O (stereo not shown)
Output: ~8.00

---

- target or test system: ENO2 (Homo sapiens)
- experimental details: Enolase activity, NADH-linked PK/LDH coupled fluorometric assay in native lysates of human cancer cells overexpressing ENO2
- Format: biochemical
- Design: expressed in transfected cells; host or cells: D423-MG (ENO1-deleted human glioma) with ectopic ENO2
- measurement parameters: lysates of D423 cells overexpressing ENO2; read-out: IC50 for ENO2
pIC50: −log10 of the molar value.
recorded endpoint: pIC50

Task: Query pIC50 on ENO2 (Homo sapiens) for C[C@@]1(P(=O)(O)O)CC(O)N(O)C1=O (stereo partly shown)
Output: ~4.82

---

- target or test system: ENO2 (Homo sapiens)
- experimental details: Enolase activity, NADH-linked PK/LDH coupled fluorometric assay in native lysates of human cancer cells overexpressing ENO2
- Assay type: biochemical
- Set-up: expressed in transfected cells; host or cells: D423-MG (ENO1-deleted human glioma) with ectopic ENO2
recorded endpoint: IC50

Task: Recorded IC50 for O=C1C(P(=O)(O)O)CC(O)N1O (stereo not shown) [SF2312] , please?
Output: ~10 nM

---

- target or test system: ENO2 (Homo sapiens, UniProt P09104)
- Sequence (P09104 whole entry): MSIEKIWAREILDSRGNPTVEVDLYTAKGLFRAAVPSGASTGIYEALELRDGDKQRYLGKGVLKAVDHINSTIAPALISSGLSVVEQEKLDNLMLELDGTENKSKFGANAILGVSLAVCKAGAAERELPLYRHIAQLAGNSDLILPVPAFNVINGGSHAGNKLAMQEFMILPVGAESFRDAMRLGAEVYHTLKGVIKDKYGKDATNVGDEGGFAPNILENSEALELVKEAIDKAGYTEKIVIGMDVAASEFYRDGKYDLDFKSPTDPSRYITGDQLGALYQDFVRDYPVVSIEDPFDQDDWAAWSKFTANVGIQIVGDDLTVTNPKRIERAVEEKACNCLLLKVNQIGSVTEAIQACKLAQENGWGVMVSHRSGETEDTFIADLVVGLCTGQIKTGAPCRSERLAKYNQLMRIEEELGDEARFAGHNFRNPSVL
- experimental details: Enolase activity, NADH-linked PK/LDH coupled fluorometric assay in native lysates of human cancer cells overexpressing ENO2
- Assay type: biochemical
- Set-up: expressed in transfected cells; host or cells: D423-MG (ENO1-deleted human glioma) with ectopic ENO2
- measurement parameters: lysates of human cancer cells (D423) overexpressing ENO2; 5 mM 2-PGA; read-out: IC50 for ENO2
pIC50: −log10 of the molar value.
Answer each item with its documented pIC50.

Task: Recorded pIC50 for CC1(P(=O)(O)O)CC(O)N(O)C1=O (centres unmarked) , please?
Output: ~8.00

Task: Recorded pIC50 for C[C@]1(P(=O)(O)O)CC(O)N(O)C1=O (some centres unmarked) , please?
Output: ~8.00

The measurements presented in this section are drawn from paper PMC6651268.
